- MEASUREMENT_PROTOCOL: UV-Vis absorption spectra of trans and cis isomers (λstrong, εE, λiso)
- Format: physicochemical
- EXPERIMENTAL_CONDITIONS: PBS pH = 7.4, 20% MeCN
MEASURE_NAME: λiso (nm)

> print(dat)
                                    compound  measure.name  unit.symbol  value
 1  COc1ccc(N=Nc2cc(OC)c(OC)c(OC)c2)cc1F [I.3]          λiso           nm    445
 2  COc1ccc(N=Nc2cc(OC)c(OC)c(OC)c2)cc1O [I.1]          λiso           nm    470
 3  COc1ccc(N=Nc2cc(OC)c(OC)c(OC)c2)cc1Br [I.27]          λiso           nm    445
 4  COc1cc(N=Nc2ccc(OC)c3ncccc23)cc(OC)c1OC [I.14]          λiso           nm    485
 5  COc1cc(N=Nc2ccc(OC)c([N+](=O)[O-])c2F)cc(OC)c1OC [I.7]          λiso           nm    455
 6  COc1ccc(N=Nc2cc(OC)c(OC)c(OC)c2)cc1OC [I.11]          λiso           nm    460
 7  COc1ccc(N=Nc2cc(OC)c(OC)c(OC)c2)c(OC)c1 [I.12]          λiso           nm    485
 8  COc1ccc(N=Nc2cc(OC)c(OC)c(OC)c2)cc1C=O [I.28]          λiso           nm    452
 9  COc1ccc(N=Nc2cc(OC)c(OC)c(OC)c2)cc1 [I.6, reference compound]          λiso           nm    445
10  COc1ccc(N=Nc2cc(OC)c(OC)c(OC)c2)c(NC(C)=O)c1 [I.26]          λiso           nm    475

* * *

- MEASUREMENT_PROTOCOL: thermal reversion halflife of spontaneous cis->trans isomerisation
- Format: physicochemical
- EXPERIMENTAL_CONDITIONS: PBS pH = 7.4, 20% MeCN
MEASURE_NAME: τ, reversion time (min)

Sample records with τ, reversion time:
MOLECULE	UNIT_SYMBOL	VALUE
COc1ccc(N=Nc2cc(F)c(OC)c(F)c2)cc1	min	116
COc1ccc(N=Nc2cc(OC)c(OC)c(OC)c2)cc1N	min	0.75

(1) COc1ccc(N=Nc2cc(OC)c(OC)c(OC)c2)cc1O
(2) COc1ccc(N=Nc2cc(OC)c(OC)c(OC)c2)cc1C(=O)O
Lookup: Hey, between 1 and 2 which has a smaller measured τ, reversion time? Please indicate the selected item by its label.
Found: 1
(1: 6.2 min, 2: 104 min)

* * *

- MEASUREMENT_PROTOCOL: UV-Vis absorption spectra of trans and cis isomers (λstrong, εE, λiso)
- Assay type: physicochemical
- EXPERIMENTAL_CONDITIONS: PBS pH = 7.4, 20% MeCN
- Procedure: A(λmeas, λirrad) is used to indicate the measured UV-Vis absorption spectrum in the range 340 nm<λmeas<650 nm, as a function of the irradiating wavelength λirrad once PSS(λirrad) has been established. UV-Vis measurement of A(λmeas, λirrad) was performed. It was considered that the PSS had been established when the absorbance profile ceased to alter under continued irradiation. […]
MEASURE_NAME: λiso (nm)

COMPOUND	λiso (nm)
COc1ccc(N=Nc2cc(OC)c(OC)c(OC)c2)c(F)c1F [I.5]	450
COc1ccc(N=Nc2cc(OC)c(OC)c(OC)c2)cn1 [I.13]	440
COc1ccc(N=Nc2cc(OC)c(OC)c(OC)c2)cc1C(=O)O [I.29]	447
COc1ccc(N=Nc2cc(OC)c(OC)c(OC)c2)cc1N [I.2]	470
COc1ccc(N=Nc2cc(OC)c(OC)c(OC)c2)c(F)c1 [I.4]	455
COc1ccc(N=Nc2cc(F)c(OC)c(F)c2)cc1 [I.9]	430
CCN(CC)c1ccc2c(-c3ccccc3C(=O)N3CCN(CCCOc4c(N=Nc5cc(OC)c(OC)c(OC)c5)ccc(OC)c4C)CC3)c3ccc(=[N+](CC)CC)cc-3oc2c1.CCN(CC)c1ccc2c(-c3ccccc3C(=O)N3CCN(CCCOc4c(N=Nc5cc(OC)c(OC)c(OC)c5)ccc(OC)c4C)CC3)c3ccc(=[N+](CC)CC)cc-3oc2c1.O=C[O-].O=C[O-] [I.25]	460

* * *

- Tested on: HeLa cells
- MEASUREMENT_PROTOCOL: cytotoxicity by crystal violet staining
- Assay type: cell-based
- EXPERIMENTAL_CONDITIONS: 2 μM, 390 nm (75 ms every 15 s), 40 h
Counter-ions that a name gives are not always drawn.
MEASURE_NAME: mean fold growth (fold)
Answer with a number only, understood to be in fold.

COMPOUND	MEASURE_NAME	UNIT_SYMBOL	VALUE
COc1ccc(N=Nc2cc(OC)c(OC)c(OC)c2)cc1F [I.3]	mean fold growth	fold	0.62
COc1ccc(N=Nc2cc(OC)c(OC)c(OC)c2)c(F)c1 [I.4]	mean fold growth	fold	0.48

Lookup: State the recorded mean fold growth for this entry: COc1ccc(N=Nc2cc(OC)c(OC)c(OC)c2)cc1O [I.1]
Found: 0.35

Lookup: State the recorded mean fold growth for this entry: COc1ccc(N=Nc2cc(OC)c(OC)c(OC)c2)cc1NC(=O)[C@@H](N)CO [I.20, 2,2,2-trifluoroacetate salt]
Found: 0.96

Lookup: State the recorded mean fold growth for this entry: COc1ccc(N=Nc2cc(OC)c(OC)c(OC)c2)cc1 [I.6, reference compound]
Found: 0.47

Lookup: State the recorded mean fold growth for this entry: COc1ccc(N=Nc2cc(OC)c(OC)c(OC)c2)cc1N [I.2]
Found: 0.47

Lookup: State the recorded mean fold growth for this entry: COc1ccc(N=Nc2cc(OC)c(OC)c(OC)c2)cc1OC(=O)N1CCCCC1CNC(=O)[C@@H](N)CC(C)C (stereo partly shown) [I.10, 2,2,2-trifluoroacetate salt]
Found: 0.357

* * *

- Tested on: HeLa cells
- MEASUREMENT_PROTOCOL: cytotoxicity by crystal violet staining
- Format: cell-based
- EXPERIMENTAL_CONDITIONS: 10 μM, 390 nm (75 ms every 15 s), 40 h
Counter-ions that a name gives are not always drawn.
MEASURE_NAME: mean fold growth (fold)
Answer with a number only, understood to be in fold.

Sample records with mean fold growth:
COMPOUND	SYSTEM_UNDER_TEST	MEASURE_NAME	UNIT_SYMBOL	VALUE
COc1ccc(N=Nc2cc(OC)c(OC)c(OC)c2)cc1N [I.2]	HeLa cells	mean fold growth	fold	0.34
COc1ccc(N=Nc2cc(OC)c(OC)c(OC)c2)cc1OC(=O)N1CCCCC1CNC(=O)[C@@H](N)CC(C)C (stereo partly shown) [I.10, 2,2,2-trifluoroacetate salt]	HeLa cells	mean fold growth	fold	0.293
COc1ccc(N=Nc2cc(OC)c(OC)c(OC)c2)cc1NC(=O)[C@@H](N)CO [I.20, 2,2,2-trifluoroacetate salt]	HeLa cells	mean fold growth	fold	0.51
COc1ccc(N=Nc2cc(OC)c(OC)c(OC)c2)cc1O [I.1]	HeLa cells	mean fold growth	fold	0.35
COc1ccc(N=Nc2cc(OC)c(OC)c(OC)c2)c(F)c1 [I.4]	HeLa cells	mean fold growth	fold	0.36

Lookup: State the recorded mean fold growth for this entry: COc1ccc(N=Nc2cc(OC)c(OC)c(OC)c2)cc1F [I.3]
Found: 0.47

Lookup: State the recorded mean fold growth for this entry: COc1ccc(N=Nc2cc(OC)c(OC)c(OC)c2)cc1 [I.6, reference compound]
Found: 0.37

* * *

- Test system: HeLa cells
- MEASUREMENT_PROTOCOL: cytotoxicity by crystal violet staining
- Type: cell-based
- EXPERIMENTAL_CONDITIONS: 100 nM, 390 nm (75 ms every 15 s), 40 h
Where a name gives a salt, the structure may show the parent alone.
Measured mean fold growth accompanies every entry in the list below.
Answer with a number only, understood to be in fold.

COMPOUND	SYSTEM_UNDER_TEST	mean fold growth, fold
COc1ccc(N=Nc2cc(OC)c(OC)c(OC)c2)cc1OC(=O)N1CCCCC1CNC(=O)[C@@H](N)CC(C)C (stereo partly shown) [I.10, 2,2,2-trifluoroacetate salt]	HeLa cells	0.986
COc1ccc(N=Nc2cc(OC)c(OC)c(OC)c2)cc1N	HeLa cells	1.10

Lookup: State the recorded mean fold growth for this entry: COc1ccc(N=Nc2cc(OC)c(OC)c(OC)c2)cc1O
Found: 0.95

Lookup: State the recorded mean fold growth for this entry: COc1ccc(N=Nc2cc(OC)c(OC)c(OC)c2)c(F)c1
Found: 0.98

Lookup: State the recorded mean fold growth for this entry: COc1ccc(N=Nc2cc(OC)c(OC)c(OC)c2)cc1 [I.6, reference compound]
Found: 0.99

Lookup: State the recorded mean fold growth for this entry: COc1ccc(N=Nc2cc(OC)c(OC)c(OC)c2)cc1F
Found: 0.93

Lookup: State the recorded mean fold growth for this entry: COc1ccc(N=Nc2cc(OC)c(OC)c(OC)c2)cc1NC(=O)[C@@H](N)CO [I.20, 2,2,2-trifluoroacetate salt]
Found: 1.09

Values were extracted from patent US20170051149A1.
